Item-by-item account of PT
species: Rattus norvegicus; assay: Open TG-GATES - Regimen: Single; format: toxicity, organism-based, Sprague-Dawley; parameters: regimen Single, gender Male, age 6 weeks; details: in vivo, po, 0 mg/kg, 3 h, tissue Blood, route gavage, dose level Control
readout.label: PT (s)

[[record]]
molecule = "Clc1ccccc1CN1CCc2sccc2C1 [TICLOPIDINE]"
reported_measurement = 11.9

[[record]]
molecule = "CN(C)CCC=C1c2ccccc2CCc2ccccc21 [AMITRIPTYLINE]"
reported_measurement = 16.2

[[record]]
molecule = "NC(=O)N1c2ccccc2C=Cc2ccccc21 [CARBAMAZEPINE]"
reported_measurement = 12.4

[[record]]
molecule = "CCc1cc(C(N)=S)ccn1 [ETHIONAMIDE]"
reported_measurement = 11.7

[[record]]
molecule = "O=C(O)c1cc(/N=N/c2ccc(S(=O)(=O)Nc3ccccn3)cc2)ccc1O [SULFASALAZINE]"
reported_measurement = 12.8

[[record]]
molecule = "C[C@H](CS)C(=O)N1CCC[C@H]1C(=O)O [CAPTOPRIL]"
reported_measurement = 11.7

[[record]]
molecule = "CSc1ccc2c(c1)N(CCC1CCCCN1C)c1ccccc1S2 (stereo unspecified) [THIORIDAZINE]"
reported_measurement = 12.1

[[record]]
molecule = "COc1ccc(Cc2nccc3cc(OC)c(OC)cc23)cc1OC [PAPAVERINE]"
reported_measurement = 15.8

[[record]]
molecule = "Cn1c(=O)c2[nH]cnc2n(C)c1=O.O [THEOPHYLLINE]"
reported_measurement = 15.5

[[record]]
molecule = "O=C(O)c1cn(C2CC2)c2cc(N3CCNCC3)c(F)cc2c1=O [CIPROFLOXACIN]"
reported_measurement = 12.5

[[record]]
molecule = "NC(=O)N/N=C/c1ccc([N+](=O)[O-])o1 [NITROFURAZONE]"
reported_measurement = 14.7


* * *

organism: Rattus norvegicus; experiment: Open TG-GATES - Regimen: Single; format: toxicity, organism-based, Sprague-Dawley; set-up: regimen Single, gender Male, age 6 weeks; conditions: in vivo, po, 1000 mg/kg, 24 h, tissue Plasma, route gavage, dose level High
readout.label: TBIL (mg/dL)

[[record]]
molecule = "O=C(O)c1cc(/N=N/c2ccc(S(=O)(=O)Nc3ccccn3)cc2)ccc1O"
reported_measurement = 0.1

[[record]]
molecule = "C[C@H](CS)C(=O)N1CCC[C@H]1C(=O)O"
reported_measurement = 0.3

[[record]]
molecule = "CCc1cc(C(N)=S)ccn1 [ETHIONAMIDE]"
reported_measurement = 0.4

[[record]]
molecule = "Clc1ccccc1CN1CCc2sccc2C1"
reported_measurement = 0.1

[[record]]
molecule = "O=C(O)c1cn(C2CC2)c2cc(N3CCNCC3)c(F)cc2c1=O"
reported_measurement = 0.2


* * *

species on record: Rattus norvegicus; assay: Open TG-GATES - Regimen: Single; format: toxicity, organism-based, Sprague-Dawley; set-up: regimen Single, gender Male, age 6 weeks; conditions: in vivo, po, 0 mg/kg, 3 h, tissue Plasma, route gavage, dose level Control
# Lookup of reported BUN keyed by entry
readout.label: BUN (mg/dL)

[[record]]
compound = "CN(C)CCC=C1c2ccccc2CCc2ccccc21"
reported_measurement = 8.8

[[record]]
compound = "CCc1cc(C(N)=S)ccn1 [ETHIONAMIDE]"
reported_measurement = 13.6

[[record]]
compound = "CSc1ccc2c(c1)N(CCC1CCCCN1C)c1ccccc1S2 (stereo unspecified)"
reported_measurement = 12.4

[[record]]
compound = "NC(=O)N1c2ccccc2C=Cc2ccccc21 [CARBAMAZEPINE]"
reported_measurement = 11.6

[[record]]
compound = "C[C@H](CS)C(=O)N1CCC[C@H]1C(=O)O"
reported_measurement = 13

[[record]]
compound = "NC(=O)N/N=C/c1ccc([N+](=O)[O-])o1"
reported_measurement = 9.8

[[record]]
compound = "O=C(O)c1cc(/N=N/c2ccc(S(=O)(=O)Nc3ccccn3)cc2)ccc1O"
reported_measurement = 12

[[record]]
compound = "CC(=O)Oc1ccccc1C(=O)O"
reported_measurement = 9.8

[[record]]
compound = "Cn1c(=O)c2[nH]cnc2n(C)c1=O.O"
reported_measurement = 13.8

[[record]]
compound = "O=C(O)c1cn(C2CC2)c2cc(N3CCNCC3)c(F)cc2c1=O"
reported_measurement = 13.8

[[record]]
compound = "COc1ccc(Cc2nccc3cc(OC)c(OC)cc23)cc1OC"
reported_measurement = 14

